- measured-on: T1, human CD112R on GS-J2C/CD112R effector cells (human, UniProt Q6DKI7 1-326)
- T1 sequence (looked up): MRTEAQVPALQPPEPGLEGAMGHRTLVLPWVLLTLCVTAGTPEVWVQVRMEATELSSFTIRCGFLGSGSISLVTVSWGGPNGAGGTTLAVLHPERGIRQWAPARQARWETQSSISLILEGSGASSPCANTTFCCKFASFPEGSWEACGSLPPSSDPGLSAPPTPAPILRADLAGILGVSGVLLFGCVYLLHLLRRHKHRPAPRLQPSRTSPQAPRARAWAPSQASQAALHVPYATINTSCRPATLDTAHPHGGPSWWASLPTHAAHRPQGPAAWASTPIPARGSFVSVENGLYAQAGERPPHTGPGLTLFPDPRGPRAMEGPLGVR
- assay-explanation: cell-based or functional assay
measured-quantity: EC50 (Blocking effects of the antibodies, reporter gene method) (µg/mL)
Field: numeric (µg/mL). Do not append units.

The following binders have reported results that may help.
C14 (antibody, human IgG1, kappa, V domains shown) VH: QVQLQQPGAELVRPGTSVKLSCKASGNTFTSYWMHWVKQRPGQGHEWIGVIDASDSNTKYNQKFKGKATLTVDTSSSTAYMQLSSLTSEDSAVYYCARYYSGSSYGLDYWGQGTTLTVSS VL: DIQMTQTASSLSASLGDRVTISCRASQDISNYLNWYQQKPDGTVKLLIYYTSRLHSGVPSRFSGSGSGTDFSLTITHLEQEDIASYFCQQGNMFPPTFGGGTKLEIKR | 0.052
C20 (antibody, human IgG1, kappa, V domains shown) VH: EVQLVESGGGLVKPGGSLKLSCAASGFTFSDSYMCWVRQTPEKRLEWVATISDAGGYTYYPDSVKGRFTISRDNDRNNLYLQMSGLKSEDTAVYYCGREDLWGQGTSVTVSS VL: DIQMTQSPSSLSASLGERVSLTCRASQDIGRSLNWLQQEPDGTIKRLIYATSRLDSGVPKRFSGSRSGSDYSLTISSLESEDFVDYYCLQYASSPYTFGGGTKLEIKR | 0.025

# input for lookup
## Input Output EC50 (Blocking effects of the antibodies, reporter gene method) of C138 (antibody, human IgG1, kappa, V domains shown) VH: EVQLVESGGGLVKPGGSLKLSCAASGFTFSSYAMSWVRQTPAKRLEWVATITSGDIRTYYPDTVKGRFTISRDNAKNTLYLQMRSLRSEDTAMYYCVGHDDFHFYAMDYWGQGTSVTVSS VL: QIVLTQSPAIMSASPGEKVTMTCSASSSVSYLYWYQQKPGSSPRLLIYDTSNLASGVPVRFSGSGSGTSYSLTLSRMEAEDAATYYCQQWSSYPLTFGAGTKLELKR
## Output 0.029
